Tested on: A549/ATCC NSCLC
measurement-notes: NCI-60 one-dose screen, 48 h
condition-info: 10 µM unless noted
This is part of a sample that, as a whole, favours compounds with a hit. Of some 83,000 tested, about 20% had one in any assay. Activity calls are given as the source filed them. The calls were made as follows: active = growth percent below 10; inactive = the rest.
Hi! Could you answer with just one of these? true for active, false for inactive

Exam item: Field: outcome | Entry: `CCCC[N+](C)(N)CCCC`
Marked response: false

Exam item: Field: outcome | Entry: `Cc1c(Cc2ccccc2)c(=O)oc2c(C)c(OCc3n[nH]c(=S)o3)ccc12`
Marked response: false

Exam item: Field: outcome | Entry: `Cc1cc2cn3c4ccc(O)cc4nc(N)c3c2cc1C`
Marked response: true

Exam item: Field: outcome | Entry: `COc1ccc(/C=C2\SC(=O)N(Cc3cc(=O)oc4ccc(OC)cc34)C2=O)cc1`
Marked response: false

Exam item: Field: outcome | Entry: `CC/C(=N\Nc1nc2ccccc2n1C)c1ccccn1`
Marked response: true

Exam item: Field: outcome | Entry: `O=C(N/N=C/c1cc(Cl)ccc1O)C(=O)N/N=C/c1cc(Cl)ccc1O`
Marked response: false

Exam item: Field: outcome | Entry: `NC(=O)c1c(Nc2ccccc2)nn2cc(-c3nc4ccccc4s3)c(N)nc12`
Marked response: false

Exam item: Field: outcome | Entry: `Oc1ccc(Br)cc1/C=N/NC(=S)NC12CC3CC(CC(C3)C1)C2`
Marked response: true

Exam item: Field: outcome | Entry: `O=C(/C=C1\C(=O)N(Cc2ccccc2)c2ccccc21)c1ccc(OCCN2CCCCC2)cc1`
Marked response: false

Exam item: Field: outcome | Entry: O=c1c2c(c3ccccc3n1-c1ccccc1)NC(=S)NC2c1ccccc1 (stereo unspecified)
Marked response: false

Exam item: Field: outcome | Entry: CC(O)CN(CCO)CCN(CCO)CC(C)O (stereo unspecified)
Marked response: false

The values you see were collected from PubChem BioAssay (NCI).
